test: soluble on expression in E. coli; label from the status in PepcDB or PDB records
OUTCOME MEASURE: soluble on expression in E. coli

Record excerpt, results attached:
MNNASGGTHSKGTATTGGTTTQAAKTNLTTTAAKGRTATPSLDEETRKRLMVEGKCFHCFKPGHISPNYLEKQIKQLKVLEQPVPEEQGVSENN : not soluble
GPGSMLDRLSCLGPRTKRWLHNNLRGRYVRVCTREQHSRKQLTPAGGPQGSALRPQLFLHCVDDLLRRMDNIYSASALMYADDLTVVASGAGTHACAAAMPPALSLITAWAAEHNHKINVDKSEAALFHISSHTRSDDEMVNLHLGNGKLRIQSRPVRLLDTTMDQLLNFDYARFHRFK : not soluble
MGSDKIHHHHHHMEGEYRALNDISLESNVLFFGKESCLPNYFYPGNNVRKNYVIHYILKGKGTFSSANHPSIELKAGDIFILPKGIPCFYKADGKEPWTYLWIGFSGLKIKNILSRSLLLSQRYLHQVQNSHFTDSLLKLFDALHNPDTSTNNDLLIESLIYQTFYYLNSEYPAQNKTNIKSSIRLKTATKYLYDNFTDNNCSIYLLCNKLGVSRSYLYNIFKEGMNLSPQQFLIKLRMEEAKNKLKNSQNSIQEISTSVGYTDTFTFSKAFKKYSGFSPKNYRQIKSSEN : not soluble
MSLSKVYLVPTPIGNLGDITLRALEVLKNVDLIAAEDTRQTLKLLNHFEIKKPLISYHKHNEQGKGEEILRRVKEGTSVAIVSDAGTPGISDPGSVVVEKCIEEGIEFEVLPGATAFTTALIYSGLDTTKFMFKGFFPRENKDKRSFIEDIKDRTETIIIYESPYRILDTIDTLKEGLGNRKVAICRELTKLHEEIFRGTLEEAKIHFEENAPKGEFVCVISGKTDKEIEEENTSKWISMSIEEHIIHYIDNEGMKKKDAIKQVAKDRGVAKSEIYKFSLDEGHHHHHH : soluble
MNATPEKADDLIVVGKIFSVHGVRGEVKVYSFTDPIENLLDYPRWTLRHEGKVKQVELVSGRGSQKGLVVKLKGLDDRDEARLLSGYEICIPRSLLPNLAADEYYWYQLVGLKVINQDEQLFGKVDHLLETGANDVMVVKPCAGSLDDRERLLPYTEQCVLAIDLEAGVMRVEWDADFLEHHHHHH : soluble

Now turn to the next sequence.
soluble on expression in E. coli for MGSSHHHHHHSSGLVPRGSHMSRVTVLQSQLPAYNRLKTPYESELIATVKKLTTPGKGLLAADESIGSCTKRFQPIGLSNTEEHRRQYRALMLEAEGFEQYISGVILHDETVGQKASNGQTFPEYLTARGVVPGIKTDMGLCPLLEGAEGEQMTEGLDGYVKRASAYYKKGCRFCKWRNVYKIQNGTVSESAVRFNAETLARYAILSQMSGLVPIVEPEVMIDGKHDIDTCQRVSEHVWREVVAALQRHGVIWEGCLLKPNMVVPGAESGKTAAPEQVAHYTVMTLARTMPAMLPGVMFLSGGLSEVQASEYLNAINNSPLPRPYFLSFSYARALQSSALKAWGGKESGLAAGRRAFLHRARMNSMAQLGKYKRSDDDASSSSLYVKGNTY ? soluble
